// values below are reported protein stability index
B1: FCHO1 (parent)
chain: HLELTRKLQDLIKDVLRYGEEQLK

variants of: B1; experiment: protein stability index of a GFP-peptide fusion (GPS, HEK-293T) (PSI 1-6); higher = more stable; conditions: c terminus: a fixed tail appended;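 note: lentivirally expressed fusions sorted by FACS into six bins by GFP to DsRed ratio, PSI derived from sequencing read proportions per bin multiplied by bin number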
The answer should be written as a number, with no unit following it.

{"sequenceCode": "HLELTRKGQDLIKDVLRYGEEQLK", "protein stability index": 2.46}

protein stability index lookup needed for `HLELTRKLQDLIKDWLRYGEEQLK` , thanks. 3.69

What value of protein stability index has been recorded for this entry: `HLMLTRKLQDLIKDVLRYGEEQLK` 3.36

Entry `HLELTMKLQDLIKDVLRYGEEQLK` has what protein stability index? 1.46

Record request: protein stability index value, item `HLELTRKLQDLIKDVLRYCEEQLK` 1.4

Which protein stability index value belongs to `HLELTRKLQDLIKDVLRYGEHQLK` ? 2.76

Need protein stability index of `HFELTRKLQDLIKDVLRYGEEQLK` , thanks. 1.95

Which measured protein stability index value corresponds to `HLELTRKLQDLIKDVLRYGEEGLK` ? 2.62

Param item = `HLELHRKLQDLIKDVLRYGEEQLK` ; retrieve measured protein stability index. 3.29

What does the data say about its protein stability index? Entry: `HLELTRKLQDLIKDVLRFGEEQLK` 2.25

Reported protein stability index, variant `HLELTRKLQDEIKDVLRYGEEQLK` : ____ 4.22
